src = paper PMC9486541

Each record here notes measured pIC50.
System: Bel-7402
Assay: MTT assay, Bel-7402 cells
Type: cell-based, human
Settings: Homo sapiens, Bel-7402, 72 h incubation, read-out: Half maximal inhibitory concentration (IC50) values, Bel-7402
pIC50: −log10 of the molar value.

{"compound": "C=C(C)[C@@H]1CC[C@]2(C(=O)OCCCOC(=O)c3cnc(C)cn3)CC[C@]3(C)[C@H](CC[C@@H]4[C@@]5(C)CCC(=O)C(C)(C)[C@@H]5CC[C@]43C)[C@@H]12 [BoA3C]", "pIC50": 5.03}
{"compound": "C=C(C)[C@@H]1CC[C@]2(C(=O)OCCCOC(=O)c3cncc(C)n3)CC[C@]3(C)[C@H](CC[C@@H]4[C@@]5(C)CCC(=O)C(C)(C)[C@@H]5CC[C@]43C)[C@@H]12 [BoA3D]", "pIC50": 5.19}
{"compound": "C=C(C)[C@@H]1CC[C@]2(C(=O)OCCCCOC(=O)c3cncc(C)n3)CC[C@]3(C)[C@H](CC[C@@H]4[C@@]5(C)CCC(=O)C(C)(C)[C@@H]5CC[C@]43C)[C@@H]12 [BoA4D]", "pIC50": 4.79}
{"compound": "C=C(C)[C@@H]1CC[C@]2(C(=O)OCCCOC(=O)c3ccnnc3)CC[C@]3(C)[C@H](CC[C@@H]4[C@@]5(C)CCC(=O)C(C)(C)[C@@H]5CC[C@]43C)[C@@H]12 [BoA3G]", "pIC50": 4.60}
{"compound": "C=C(C)[C@@H]1CC[C@]2(C(=O)OCCCCOC(=O)c3cnccn3)CC[C@]3(C)[C@H](CC[C@@H]4[C@@]5(C)CCC(=O)C(C)(C)[C@@H]5CC[C@]43C)[C@@H]12 [BoA4A]", "pIC50": 5.03}
{"compound": "C=C(C)[C@@H]1CC[C@]2(C(=O)OCCCCOC(=O)c3ccnnc3)CC[C@]3(C)[C@H](CC[C@@H]4[C@@]5(C)CCC(=O)C(C)(C)[C@@H]5CC[C@]43C)[C@@H]12 [BoA4G]", "pIC50": 4.71}
{"compound": "C=C(C)[C@@H]1CC[C@]2(C(=O)OCCOC(=O)c3cncc(C)n3)CC[C@]3(C)[C@H](CC[C@@H]4[C@@]5(C)CCC(=O)C(C)(C)[C@@H]5CC[C@]43C)[C@@H]12 [BoA2D]", "pIC50": 5.09}

###

// pIC50 lookup, one value per entry
Test system: MCF-7
Assay: MTT assay, MCF-7 cells
Format: cell-based, human
Conditions: Homo sapiens, MCF7, 72 h incubation, read-out: Half maximal inhibitory concentration (IC50) values, MCF-7
pIC50: −log10 of the molar value.
measure: pIC50

{"chemical.smiles": "C=C(C)[C@@H]1CC[C@]2(C(=O)OCCCCOC(=O)c3ccnnc3)CC[C@]3(C)[C@H](CC[C@@H]4[C@@]5(C)CCC(=O)C(C)(C)[C@@H]5CC[C@]43C)[C@@H]12", "rel": "=", "recorded.result": 4.89}
{"chemical.smiles": "C=C(C)[C@@H]1CC[C@]2(C(=O)OCCCCOC(=O)c3cncc(C)n3)CC[C@]3(C)[C@H](CC[C@@H]4[C@@]5(C)CCC(=O)C(C)(C)[C@@H]5CC[C@]43C)[C@@H]12", "rel": "<", "recorded.result": 4.52}
{"chemical.smiles": "C=C(C)[C@@H]1CC[C@]2(C(=O)OCCCCOC(=O)c3cnccn3)CC[C@]3(C)[C@H](CC[C@@H]4[C@@]5(C)CCC(=O)C(C)(C)[C@@H]5CC[C@]43C)[C@@H]12", "rel": "=", "recorded.result": 5.04}
{"chemical.smiles": "C=C(C)[C@@H]1CC[C@]2(C(=O)OCCCCOC(=O)c3cnc(C)cn3)CC[C@]3(C)[C@H](CC[C@@H]4[C@@]5(C)CCC(=O)C(C)(C)[C@@H]5CC[C@]43C)[C@@H]12", "rel": "=", "recorded.result": 5.01}
{"chemical.smiles": "C=C(C)[C@@H]1CC[C@]2(C(=O)OCCCOC(=O)c3ccncn3)CC[C@]3(C)[C@H](CC[C@@H]4[C@@]5(C)CCC(=O)C(C)(C)[C@@H]5CC[C@]43C)[C@@H]12", "rel": "<", "recorded.result": 4.52}
{"chemical.smiles": "C=C(C)[C@@H]1CC[C@]2(C(=O)OCCCOC(=O)c3cnc(C)cn3)CC[C@]3(C)[C@H](CC[C@@H]4[C@@]5(C)CCC(=O)C(C)(C)[C@@H]5CC[C@]43C)[C@@H]12", "rel": "=", "recorded.result": 5.00}
{"chemical.smiles": "C=C(C)[C@@H]1CC[C@]2(C(=O)OCCCOC(=O)c3nccnc3C)CC[C@]3(C)[C@H](CC[C@@H]4[C@@]5(C)CCC(=O)C(C)(C)[C@@H]5CC[C@]43C)[C@@H]12", "rel": "=", "recorded.result": 4.55}
{"chemical.smiles": "C=C(C)[C@@H]1CC[C@]2(C(=O)OCc3cncc(C)n3)CC[C@]3(C)[C@H](CC[C@@H]4[C@@]5(C)CCC(=O)C(C)(C)[C@@H]5CC[C@]43C)[C@@H]12", "rel": "=", "recorded.result": 5.08}
{"chemical.smiles": "C=C(C)[C@@H]1CC[C@]2(C(=O)OCCCOC(=O)c3cncc(C)n3)CC[C@]3(C)[C@H](CC[C@@H]4[C@@]5(C)CCC(=O)C(C)(C)[C@@H]5CC[C@]43C)[C@@H]12", "rel": "=", "recorded.result": 5.25}
{"chemical.smiles": "C=C(C)[C@@H]1CC[C@]2(C(=O)OCCOC(=O)c3cnccn3)CC[C@]3(C)[C@H](CC[C@@H]4[C@@]5(C)CCC(=O)C(C)(C)[C@@H]5CC[C@]43C)[C@@H]12", "rel": "=", "recorded.result": 5.01}
{"chemical.smiles": "C=C(C)[C@@H]1CC[C@]2(C(=O)O)CC[C@]3(C)[C@H](CC[C@@H]4[C@@]5(C)CCC(=O)C(C)(C)[C@@H]5CC[C@]43C)[C@@H]12", "rel": "<", "recorded.result": 4.52}
{"chemical.smiles": "C=C(C)[C@@H]1CC[C@]2(C(=O)OCCOC(=O)c3ccncn3)CC[C@]3(C)[C@H](CC[C@@H]4[C@@]5(C)CCC(=O)C(C)(C)[C@@H]5CC[C@]43C)[C@@H]12", "rel": "=", "recorded.result": 4.53}
{"chemical.smiles": "C=C(C)[C@@H]1CC[C@]2(C(=O)OCCCOC(=O)c3ccnnc3)CC[C@]3(C)[C@H](CC[C@@H]4[C@@]5(C)CCC(=O)C(C)(C)[C@@H]5CC[C@]43C)[C@@H]12", "rel": "=", "recorded.result": 4.87}
{"chemical.smiles": "C=C(C)[C@@H]1CC[C@]2(C(=O)OCCOC(=O)c3nccnc3C)CC[C@]3(C)[C@H](CC[C@@H]4[C@@]5(C)CCC(=O)C(C)(C)[C@@H]5CC[C@]43C)[C@@H]12", "rel": "<", "recorded.result": 4.52}
{"chemical.smiles": "C=C(C)[C@@H]1CC[C@]2(C(=O)OCc3cnc(C)cn3)CC[C@]3(C)[C@H](CC[C@@H]4[C@@]5(C)CCC(=O)C(C)(C)[C@@H]5CC[C@]43C)[C@@H]12", "rel": "=", "recorded.result": 5.05}
{"chemical.smiles": "C=C(C)[C@@H]1CC[C@]2(C(=O)OCCCCOC(=O)c3nc(C)c(C)nc3C)CC[C@]3(C)[C@H](CC[C@@H]4[C@@]5(C)CCC(=O)C(C)(C)[C@@H]5CC[C@]43C)[C@@H]12", "rel": "<", "recorded.result": 4.52}
{"chemical.smiles": "C=C(C)[C@@H]1CC[C@]2(C(=O)OCCOC(=O)c3ccnnc3)CC[C@]3(C)[C@H](CC[C@@H]4[C@@]5(C)CCC(=O)C(C)(C)[C@@H]5CC[C@]43C)[C@@H]12", "rel": "<", "recorded.result": 4.52}
{"chemical.smiles": "C=C(C)[C@@H]1CC[C@]2(C(=O)OCCCCOC(=O)c3ccncn3)CC[C@]3(C)[C@H](CC[C@@H]4[C@@]5(C)CCC(=O)C(C)(C)[C@@H]5CC[C@]43C)[C@@H]12", "rel": "=", "recorded.result": 4.61}
{"chemical.smiles": "C=C(C)[C@@H]1CC[C@]2(C(=O)OCCCOC(=O)c3cnccn3)CC[C@]3(C)[C@H](CC[C@@H]4[C@@]5(C)CCC(=O)C(C)(C)[C@@H]5CC[C@]43C)[C@@H]12", "rel": "=", "recorded.result": 5.16}
{"chemical.smiles": "C=C(C)[C@@H]1CC[C@]2(C(=O)OCc3cnccn3)CC[C@]3(C)[C@H](CC[C@@H]4[C@@]5(C)CCC(=O)C(C)(C)[C@@H]5CC[C@]43C)[C@@H]12", "rel": "=", "recorded.result": 4.81}
